As shown below, each of these molecules has a reported half-life at 1 μM value.
assay: Liver microsomal metabolic stability, human liver microsomes (HLM); conditions: human, liver microsomes

I would be grateful if you could share the reported half-life at 1 μM for CCn1cc(C(F)(F)F)nc1-c1ccc(CN2CC(C)(C)Cn3nc(-c4c(OC)ncnc4C4CC4)cc32)cc1F .
< 25 min

----------
assay: Liver microsomal metabolic stability, human liver microsomes (HLM); conditions: human, liver microsomes
measure name: half-life at 1 μM

Worked cases, half-life at 1 μM given:
[
  {
    "compound": "CCn1cc(C(F)(F)F)nc1-c1ccc(COC2CCCn3nc(-c4c(Cl)cnn4C(C)C)cc32)cc1 (stereo not shown)",
    "half-life at 1 μM": "< 25 min"
  },
  {
    "compound": "CCn1cc(Cl)nc1-c1ccc(CN2C(=O)CCn3nc(-c4c(Cl)cnn4C(C)C)cc32)cc1",
    "half-life at 1 μM": "< 25 min"
  },
  {
    "compound": "CCn1cc(C(F)(F)F)nc1-c1c(Cl)cc(CN2C(=O)CCn3nc(-c4c(OC)ncnc4C4CC4)cc32)cc1OC",
    "half-life at 1 μM": "< 25 min"
  },
  {
    "compound": "COc1cc(C(F)(F)F)nn1-c1ccc(CN2C(=O)CCn3nc(-c4c(C)cnn4C(C)C)cc32)cc1F",
    "half-life at 1 μM": "< 25 min"
  },
  {
    "compound": "COc1ncnc(C2CC2)c1-c1nc2n(n1)CCC(=O)N2[C@@H](C)c1ccc(-n2nc(C(F)(F)F)cc2C)c(F)c1",
    "half-life at 1 μM": "> 25 min"
  }
]

I would be grateful if you could share the reported half-life at 1 μM for COc1ncnc(C2CC2)c1-c1nc2n(Cc3ccc(-c4nc(C(F)(F)F)cn4C(C)C)c(F)c3OC)c(=O)ccn2n1 .
> 25 min

I would be grateful if you could share the reported half-life at 1 μM for CCn1cc(C(F)(F)F)nc1-c1ccc(CN2c3cc(-c4c(OC)ncnc4C4CC4)nn3CCC2C)cc1F (stereo not shown) .
< 25 min

I would be grateful if you could share the reported half-life at 1 μM for COc1ncnc(C2CC2)c1-c1cc2n(n1)CCC(=O)N2Cc1ccc(-n2nc(C(F)(F)F)cc2OC)c(F)c1 .
> 25 min

I would be grateful if you could share the reported half-life at 1 μM for CCn1cc(C(F)(F)F)nc1-c1ccc(CN2C(=O)CCn3nc(-c4c(Cl)cnn4C(C)C)c(C#N)c32)cc1 .
< 25 min

I would be grateful if you could share the reported half-life at 1 μM for COc1cc(CN2C(=O)CCn3nc(-c4c(Cl)cnn4C(C)C)cc32)ccc1-c1nc(C(F)(F)F)cn1C(C)C .
> 25 min

I would be grateful if you could share the reported half-life at 1 μM for Cc1cnn(C(C)C)c1-c1cc2n(n1)CCCN2Cc1ccc(-c2nc(C(F)(F)F)nn2C)cc1 .
< 25 min

I would be grateful if you could share the reported half-life at 1 μM for CCn1cc(C(F)(F)F)nc1-c1ccc(N[C@@H]2CCCn3nc(-c4c(Cl)cnn4[C@@H](C)CF)cc32)cc1 (single isomer, unassigned) .
> 25 min

I would be grateful if you could share the reported half-life at 1 μM for CCn1cc(C(F)(F)F)nc1-c1ccc([C@H](C)n2c(=O)ccn3nc(-c4c(OC)ncnc4C4CC4)nc23)cc1 .
< 25 min

I would be grateful if you could share the reported half-life at 1 μM for Cc1cnn(C(C)C)c1-c1cc2n(n1)CCCN2Cc1ccc(-c2nc(C(F)(F)F)cn2C(C)C)cc1 .
< 25 min

I would be grateful if you could share the reported half-life at 1 μM for COc1ncnc(C2CC2)c1-c1cc2n(n1)CCCN2Cc1ccc(-c2nc(C(F)(F)F)cn2C)cc1 .
< 25 min

I would be grateful if you could share the reported half-life at 1 μM for COc1cccc(C)c1-c1cc2n(n1)CCC(=O)N2Cc1ccc(-c2nc(C(F)(F)F)cn2C)cc1 .
< 25 min

I would be grateful if you could share the reported half-life at 1 μM for COc1cc(CN2C(=O)CCn3nc(-c4c(OC)ncnc4C4CC4)nc32)ccc1-c1nc(C(F)(F)F)cn1C(C)C .
> 25 min

I would be grateful if you could share the reported half-life at 1 μM for CCn1cc(C(F)(F)F)nc1-c1ccc(C(C)N2CCCn3nc(-c4c(OC)ncnc4C4CC4)cc32)cc1 (stereo not shown) .
< 25 min

I would be grateful if you could share the reported half-life at 1 μM for CC(C)n1cc(C(F)(F)F)nc1-c1ccc(CN2C(=O)CCn3nc(-c4c(Cl)cnn4C(C)C)cc32)cc1 .
> 25 min

The values you see were collected from patent US20230219965A1.
